System: PIK3CA(E545A);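 further: KINOMEscan scanMAX binding as percent activity remaining versus control; lower means stronger binding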
Settings: Compound Concentration (nM):1000
reportedEndpoint: Percent Control (%)
Give bare numbers, in %.

INSERT INTO assay_data (molecule, reportedendpoint, recordedresult) VALUES
  ('CC1=C(C(=O)Nc2ccc3[nH]ncc3c2)C(c2ccc3ccccc3c2)CC(=O)N1 (centres unmarked) [GSK270822A]', 'Percent Control', 91);

I'm hoping you can list Percent Control for every molecule here, please.
1. CC1=C(C(=O)Nc2ccc3[nH]ncc3c2)C(c2ccc(Cl)c(Cl)c2)CC(=O)N1 (centres unmarked) [GSK299115A]
2. NS(=O)(=O)c1ccc(N/N=C2\C(=O)Nc3ccc(C(=O)NCCc4c[nH]cn4)cc32)cc1 [GW300660X]
3. COc1ccc2c(-c3ccnc(Nc4cccc(OC(F)(F)F)c4)n3)cnn2n1 [GW810372X]
4. Cl.O=C(O[C@H]1CN[C@H](C#Cc2cc3ncnc(Nc4ccc5c(cnn5Cc5ccccc5)c4)c3s2)C1)N1CCOCC1 [GSK200398A]
5. NS(=O)(=O)c1ccc(Nc2ncc(-c3ccccc3)o2)cc1 [GW572399X]
6. COc1cc(/C=N/Nc2ncnc3[nH]ncc23)ccc1O [GW578748X]
7. CN1CCN(C(=O)c2ccc(NC(=O)Nc3ccc(N(C)c4ccnc(Nc5ccc(CS(C)(=O)=O)cc5)n4)cc3)cc2)CC1.Cl [GW830263A]

**Result**
[90, 100, 90, 100, 100, 82, 100]
